target-under-test: human P2X3 receptor (Homo sapiens (Human))
Sequence (P56373 whole entry): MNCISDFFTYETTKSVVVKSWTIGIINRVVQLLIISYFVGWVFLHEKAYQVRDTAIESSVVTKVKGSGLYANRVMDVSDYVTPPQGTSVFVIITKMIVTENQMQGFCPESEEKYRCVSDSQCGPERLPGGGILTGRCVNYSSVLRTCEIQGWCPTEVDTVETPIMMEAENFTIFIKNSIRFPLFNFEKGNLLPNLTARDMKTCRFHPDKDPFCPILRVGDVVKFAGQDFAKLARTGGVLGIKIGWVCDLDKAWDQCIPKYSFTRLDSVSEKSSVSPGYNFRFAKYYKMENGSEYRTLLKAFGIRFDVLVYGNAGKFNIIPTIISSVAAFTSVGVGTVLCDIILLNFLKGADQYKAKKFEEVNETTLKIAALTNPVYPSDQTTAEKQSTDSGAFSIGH
test-description: Evaluation of human P2X3 receptor inhibitory activity (Test Example 1-2, FLIPR 384, 384-well, 150 nM ATP)
Format: cell-based
particulars: human P2X3 receptor in C6BU-1 cells; Test Example 1-2 (compounds I-301 to I-483); read-out: P2X3 IC50
quantity-measured: IC50 (nM)
Answers are plain numbers, in nM.

| substance-smiles | output-unit | IC50 |
| --- | --- | --- |
| Cc1nc(CNC(=O)c2cn(Cc3ccc(Cl)cc3)c(Nc3ccc(Oc4cccc(F)n4)cc3)nc2=O)no1 | nM | 128 |
| CCC(=O)Nc1c[nH]/c(=N\c2ccc(Oc3cccc(CCC(=O)O)c3)cc2)n(Cc2ccc(Cl)cc2)c1=O | nM | 76 |

Qu. Which IC50 reading was recorded for the compound O=C(NCC1CCCC1)c1cn(Cc2ccc(Cl)cc2)c(Nc2ccc(Oc3cccc(F)n3)cc2)nc1=O ?
Ans. 110
